target: M. smegmatis DNA gyrase (Mycolicibacterium smegmatis, UniProt Q59556)
Sequence (Q59556 whole entry): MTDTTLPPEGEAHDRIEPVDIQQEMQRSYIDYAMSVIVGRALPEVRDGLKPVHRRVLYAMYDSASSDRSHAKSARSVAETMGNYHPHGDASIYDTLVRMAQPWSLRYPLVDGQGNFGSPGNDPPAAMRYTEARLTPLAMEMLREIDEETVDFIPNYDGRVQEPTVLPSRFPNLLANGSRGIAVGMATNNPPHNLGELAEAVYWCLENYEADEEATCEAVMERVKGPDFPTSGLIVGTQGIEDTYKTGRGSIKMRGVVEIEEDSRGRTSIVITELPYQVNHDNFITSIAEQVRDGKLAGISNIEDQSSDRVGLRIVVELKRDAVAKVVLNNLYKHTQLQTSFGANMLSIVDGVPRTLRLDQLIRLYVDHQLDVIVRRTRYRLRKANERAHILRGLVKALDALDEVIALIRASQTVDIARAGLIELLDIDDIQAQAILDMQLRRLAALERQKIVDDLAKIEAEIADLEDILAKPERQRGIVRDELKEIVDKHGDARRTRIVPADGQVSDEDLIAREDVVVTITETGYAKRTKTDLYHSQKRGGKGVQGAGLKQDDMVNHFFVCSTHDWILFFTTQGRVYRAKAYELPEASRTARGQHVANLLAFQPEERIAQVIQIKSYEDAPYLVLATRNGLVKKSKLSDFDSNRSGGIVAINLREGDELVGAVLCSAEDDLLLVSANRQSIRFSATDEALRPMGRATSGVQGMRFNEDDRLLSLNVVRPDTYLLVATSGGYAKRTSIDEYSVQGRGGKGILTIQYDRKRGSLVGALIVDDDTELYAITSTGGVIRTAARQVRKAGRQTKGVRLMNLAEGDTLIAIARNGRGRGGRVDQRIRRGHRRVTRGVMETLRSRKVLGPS
Sequence (P0C559 2-675, further chain): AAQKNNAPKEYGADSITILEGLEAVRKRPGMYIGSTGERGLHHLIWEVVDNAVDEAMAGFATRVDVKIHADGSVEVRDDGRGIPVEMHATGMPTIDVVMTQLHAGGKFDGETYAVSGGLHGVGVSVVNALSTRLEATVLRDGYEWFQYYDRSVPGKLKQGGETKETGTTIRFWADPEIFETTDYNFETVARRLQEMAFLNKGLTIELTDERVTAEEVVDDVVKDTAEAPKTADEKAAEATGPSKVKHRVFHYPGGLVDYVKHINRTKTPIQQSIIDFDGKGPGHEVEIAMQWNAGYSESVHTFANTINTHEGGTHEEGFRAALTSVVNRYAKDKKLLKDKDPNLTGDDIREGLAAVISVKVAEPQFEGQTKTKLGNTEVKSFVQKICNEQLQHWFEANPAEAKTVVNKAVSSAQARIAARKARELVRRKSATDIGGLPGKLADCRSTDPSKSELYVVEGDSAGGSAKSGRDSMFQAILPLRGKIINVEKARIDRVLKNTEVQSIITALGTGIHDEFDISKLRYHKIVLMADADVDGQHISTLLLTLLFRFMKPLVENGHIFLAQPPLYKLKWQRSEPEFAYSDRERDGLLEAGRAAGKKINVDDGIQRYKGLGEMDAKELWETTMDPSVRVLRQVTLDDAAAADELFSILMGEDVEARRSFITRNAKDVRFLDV
measuredParameter: IC50

Query string: // query IC50 value for entry O=C(O)c1cn(C2CC2)c2cc(N3CCNCC3)c(F)cc2c1=O [ciprofloxacin, reference compound]
Result string: ~15.1 µM
